Let's look at some compounds and their measured Ki.
# assayed_system: Human CXCR4 transfected HEK293 cells (Homo sapiens)
# Sequence (P61073 whole entry): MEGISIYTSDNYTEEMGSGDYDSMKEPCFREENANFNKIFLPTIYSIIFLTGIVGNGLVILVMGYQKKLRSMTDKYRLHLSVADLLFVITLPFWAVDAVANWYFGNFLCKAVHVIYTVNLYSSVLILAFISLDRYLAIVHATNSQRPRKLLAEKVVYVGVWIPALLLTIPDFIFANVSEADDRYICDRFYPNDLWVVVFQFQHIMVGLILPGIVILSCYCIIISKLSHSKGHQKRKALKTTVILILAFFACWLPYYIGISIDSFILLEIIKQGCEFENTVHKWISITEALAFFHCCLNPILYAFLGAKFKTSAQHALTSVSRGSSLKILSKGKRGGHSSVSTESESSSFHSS
# assay_overview: CXCR4 functional calcium assay (calcium flux FLIPR, antagonism of SDF1 response)
# experimental_conditions: CXCR4 functional activity, antagonism of SDF1 (EC50 concentration), read-out: CXCR4 fKi

- compound: "COc1ccc(NC(=O)c2cccc(N3CCCN(C4CCN(C(C)C)CC4)CC3)n2)cc1"
  Ki: "20 to 100 nM"
- compound: "CC(C)N1CCC(N2CCCN(c3cccc(C(=O)Nc4ccccn4)n3)CC2)CC1"
  Ki: "< 20 nM"
- compound: "Cc1nc(-c2cccc(N3CC[C@@H](NC[C@H]4CCN(C5CCCC5)C4)C3)n2)[nH]c1C1CC1"
  Ki: "< 20 nM"
- compound: "O=C(NCC1CC1)c1cccc(N2CCCN(C3CCN(C4CCCC4)CC3)CC2)n1"
  Ki: "20 to 100 nM"

API: value(readout=Ki, system=Human CXCR4 transfected HEK293 cells (Homo sapiens)) for record `O=C(Nc1ccncc1)c1cccc(N2CC[C@@H](NC[C@H]3CCN(C4CCCC4)C3)C2)n1`
< 20 nM

API: value(readout=Ki, system=Human CXCR4 transfected HEK293 cells (Homo sapiens)) for record `O=C(NCC1CC1)c1cccc(N2CCCN(CCCN3CCc4ccccc4C3)CC2)n1`
500 to 1000 nM
